Sourced from ChEMBL document CHEMBL1127224

Recorded Ki values (Cathepsin E (Homo sapiens)) are given below.
Express your answer in nM, writing the number without its unit.

In: # get_value(readout='Ki', item= `CC[C@H](C)[C@H](NC(=O)[C@H](C(C)C)[C@@H](O)[C@H](O)[C@H](CC1CCCCC1)NC(=O)[C@H](Cc1c[nH]cn1)NC(=O)COc1cccc2ccccc12)C(=O)NCc1ccccn1` )
Out: 142

In: Fill blank: measured Ki of the compound CCC(C)[C@H](NC(=O)[C@@H](C[C@H](O)[C@H](CC1CCCCC1)NC(=O)[C@H](CC(N)=O)NC(=O)c1ccc2ccccc2n1)C(C)C)C(=O)NCc1ccccn1 (some centres undefined) is ____.
Out: 3

In: // Ki lookup, key: CCC(C)[C@H](NC(=O)[C@@H](C[C@H](O)[C@H](CC1CCCCC1)NC(=O)OC(C)(C)C)C(C)C)C(=O)NCc1ccccn1 (some centres undefined)
Out: 90

In: # lookup: Ki of CCC(C)[C@H](NC(=O)[C@@H](C[C@H](O)[C@H](CC1CCCCC1)NC(=O)[C@H](Cc1c[nH]cn1)NC(=O)COc1cccc2ccccc12)C(C)C)C(=O)NCc1ccccn1 (some centres undefined)
Out: 50
